Target: ATP-dependent translocase ABCB1 (Homo sapiens, UniProt P08183)
Sequence (P08183 whole entry): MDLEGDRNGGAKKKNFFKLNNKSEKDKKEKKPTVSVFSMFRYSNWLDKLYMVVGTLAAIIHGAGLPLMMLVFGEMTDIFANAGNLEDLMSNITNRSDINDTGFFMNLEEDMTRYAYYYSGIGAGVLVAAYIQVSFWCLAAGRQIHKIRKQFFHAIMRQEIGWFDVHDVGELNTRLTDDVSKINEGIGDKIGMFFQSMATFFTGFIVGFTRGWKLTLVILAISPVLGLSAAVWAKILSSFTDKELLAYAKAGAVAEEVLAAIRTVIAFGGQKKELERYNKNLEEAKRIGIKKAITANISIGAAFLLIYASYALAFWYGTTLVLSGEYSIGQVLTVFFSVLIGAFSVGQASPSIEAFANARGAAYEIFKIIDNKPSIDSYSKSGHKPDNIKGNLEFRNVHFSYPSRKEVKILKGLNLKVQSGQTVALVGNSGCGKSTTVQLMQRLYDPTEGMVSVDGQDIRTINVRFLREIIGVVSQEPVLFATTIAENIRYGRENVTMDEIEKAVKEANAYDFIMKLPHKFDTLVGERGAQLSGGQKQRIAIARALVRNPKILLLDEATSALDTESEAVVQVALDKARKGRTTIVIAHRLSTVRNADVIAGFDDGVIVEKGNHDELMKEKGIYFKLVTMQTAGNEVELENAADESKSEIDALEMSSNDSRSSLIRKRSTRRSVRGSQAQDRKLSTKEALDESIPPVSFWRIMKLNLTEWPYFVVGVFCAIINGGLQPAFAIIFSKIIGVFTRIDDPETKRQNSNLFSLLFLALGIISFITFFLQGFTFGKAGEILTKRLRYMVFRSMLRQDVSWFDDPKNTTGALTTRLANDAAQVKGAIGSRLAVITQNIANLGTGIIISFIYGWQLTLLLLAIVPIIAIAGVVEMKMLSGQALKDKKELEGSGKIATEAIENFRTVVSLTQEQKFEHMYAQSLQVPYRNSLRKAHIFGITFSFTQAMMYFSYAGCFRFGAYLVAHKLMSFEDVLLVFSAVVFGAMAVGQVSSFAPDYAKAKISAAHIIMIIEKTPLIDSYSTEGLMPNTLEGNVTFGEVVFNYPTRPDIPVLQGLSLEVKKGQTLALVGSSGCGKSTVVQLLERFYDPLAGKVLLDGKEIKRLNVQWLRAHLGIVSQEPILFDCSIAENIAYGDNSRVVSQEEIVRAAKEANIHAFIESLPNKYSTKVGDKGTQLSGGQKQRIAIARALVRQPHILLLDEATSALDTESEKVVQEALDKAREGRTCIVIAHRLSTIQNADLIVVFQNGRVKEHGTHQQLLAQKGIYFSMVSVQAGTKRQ
Test: Inhibition of MDR1 (unknown origin) expressed in MDCK cells assessed as decrease in calcein-AM transport after 30 mins by fluorescence assay
Collected EC50 values appear next to each entry.
reported_property: EC50 (nM)

> print(dat)
                                   compound  endpoint.result
1  COc1cc2c(cc1OC)CN(Cc1ccc(-c3ccc(OCCOc4nonc4OC)cc3)cc1)CC2              0.6
2  COc1cc2c(cc1OC)CN(Cc1ccc(-c3ccc(OCCCOc4nonc4C)cc3)cc1)CC2              350
3  COc1cc2c(cc1OC)CN(Cc1ccc(-c3ccc(OCCOc4nonc4C#N)cc3)cc1)CC2             1200
4  COc1cc2c(cc1OC)CN(Cc1ccc(-c3ccc(OCCCOc4nonc4Oc4ccccc4)cc3)cc1)CC2             1180
5  COc1cc2c(cc1OC)CN(Cc1ccc(-c3ccc(OCCCCOc4nonc4OC)cc3)cc1)CC2              290
6  COc1cc2c(cc1OC)CN(Cc1ccc(-c3ccc(OCCOc4nonc4[S+]([O-])c4ccccc4)cc3)cc1)CC2 (centres undefined)              0.9
7  COc1cc2c(cc1OC)CN(Cc1ccc(-c3ccc(OCCOc4nonc4OCc4ccccc4)cc3)cc1)CC2              290
8  COc1cc2c(cc1OC)CN(Cc1ccc(-c3ccc(OCCCOc4nonc4Sc4ccccc4)cc3)cc1)CC2             1170
9  COc1cc2c(cc1OC)CN(Cc1ccc(-c3ccc(OCCCOc4nonc4OC)cc3)cc1)CC2               54
